tested on: PfAP2-EXP AP2 domain (GST-tagged); test: gcPBM binding intensity (ln(normalized median fluorescence intensity)); higher = stronger DNA binding
The full ranking holds about 25,000 sequences; the median of “ln(normalized median fluorescence intensity)” is about 8.6, and the highest 2% start at about 10. The full list was thinned out, with the highest values kept by preference.
If the reported gcPBM binding intensity (ln) equals or exceeds 9, assign 1. If not, assign 0.

| residue-string | target-of-assay | label |
| --- | --- | --- |
| ATATATATATATATATGTACATAAACATATATATAT [XGTACX_site1064] | PfAP2-EXP AP2 domain (GST-tagged) | 1 |

[ask] Hi team, for ATATATATATGTTACTGTACTAATTTATATGTTAAT [XGTACX_site3341] , is the recorded gcPBM binding intensity (ln) at or above 9?
[reply] 1

[ask] Hi team, for TTTTTTTTTTTCGGGGGTACTAATATATTATTAATA [XGTACX_site7809] , is the recorded gcPBM binding intensity (ln) at or above 9?
[reply] 1

[ask] Hi team, for TTATATGCATAAAAACGTACAAAAATGTATTCATGT [XGTACX_site2215] , is the recorded gcPBM binding intensity (ln) at or above 9?
[reply] 0

[ask] Hi team, for ATATATATATATATATGTACGTATTCATAAACAACA [XGTACX_site4282] , is the recorded gcPBM binding intensity (ln) at or above 9?
[reply] 1

[ask] Hi team, for TCTTTATTATTCGCCACACACATATATATATATATA [CACACA_site3077] , is the recorded gcPBM binding intensity (ln) at or above 9?
[reply] 1

[ask] Hi team, for AACAGACATAGACACACACACATATATTTATTTATA [CACACA_site7571] , is the recorded gcPBM binding intensity (ln) at or above 9?
[reply] 0

[ask] Hi team, for AAAAAAAAAAAAAATACACACATATATAAATAAATA [CACACA_site6459] , is the recorded gcPBM binding intensity (ln) at or above 9?
[reply] 0

[ask] Hi team, for TTTCTTATATTATATAAATATATAGATGTTAATGGT [CACACA_negctrl_site706] , is the recorded gcPBM binding intensity (ln) at or above 9?
[reply] 0
